test system: Russian thistle (Salsola iberica); assay: Test B pre-/postemergence plant response; format: in vivo; conditions: Preemergence, 62 g ai/ha; 0 to 100 scale, 0 no effect, 100 complete control
Catalogue of Plant response rating, Russian Thistle readings, one per entry.
Write no unit; give the number alone.

For orientation, consider the following solved cases.
{"columns": ["compoundStructure", "measuredNumber"],
 "data": [
  ["Cc1cc(-c2ccc(Cl)cc2)nn1-c1c(OC(=O)OCC(C)C)cnn(C)c1=O", 0],
  ["CCc1cc(-c2ccc(Br)cc2)nn1-c1c(O)cnn(C)c1=O", 0],
  ["C#CCOC(=O)Oc1cnn(C)c(=O)c1-n1nc(-c2ccc(Cl)cc2)cc1C", 60]
]}

Specify measured Plant response rating, Russian Thistle for `Cc1nn(C)c(=O)c(-n2nc(-c3ccc(Br)cc3)cc2C)c1O` .
0
